Measured Target: CLK1 (Homo sapiens)
Sequence (P49759 148-484): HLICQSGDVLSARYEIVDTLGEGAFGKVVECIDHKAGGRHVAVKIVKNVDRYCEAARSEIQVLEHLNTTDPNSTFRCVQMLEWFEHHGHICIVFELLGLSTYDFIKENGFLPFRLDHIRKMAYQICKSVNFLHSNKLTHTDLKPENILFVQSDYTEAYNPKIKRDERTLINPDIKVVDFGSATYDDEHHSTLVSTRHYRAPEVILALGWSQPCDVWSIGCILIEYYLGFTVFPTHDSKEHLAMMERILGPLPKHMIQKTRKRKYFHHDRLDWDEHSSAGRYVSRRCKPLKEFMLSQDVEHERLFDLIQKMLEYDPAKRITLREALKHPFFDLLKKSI
Assay Metric: IC50 (nM)
Report the figure in nM without appending any unit label.

## Input Give CLK1 (Homo sapiens) IC50 for Nc1nc(Nc2ccc(S(N)(=O)=O)cc2)nn1C(=S)Nc1c(F)cccc1F [K00546]
## Output 8.9

Each recorded value in this set is attributed to paper PMC3145970.
